TEST: Mouse Pharmacokinetic Study (Example 1C)
Type: in vivo
TEST_PARAMETERS: mouse; CD-1 mice, po, 30 mg/kg; plasma

- COMPOUND: "Fc1cncc(-c2nc(N[C@@H]3CCc4[nH]c5ccccc5c4C3)c3ncccc3n2)c1"
  AUC(0-inf) / ng·h/mL: 14700
- COMPOUND: "CN(C)c1cnn2c(NCCc3c[nH]c4ccccc34)cc(-c3cncc(F)c3)nc12"
  AUC(0-inf) / ng·h/mL: 657
- COMPOUND: "N#Cc1cnn2c(N[C@@H]3CCc4[nH]c5ccccc5c4C3)nc(-c3cncc(F)c3)nc12"
  AUC(0-inf) / ng·h/mL: 6690
- COMPOUND: "CC(C)c1cnn2c(N[C@H]3CCc4[nH]ccc4C3)nc(-c3cncc(F)c3)nc12 [I-137a]"
  AUC(0-inf) / ng·h/mL: 3840
- COMPOUND: "CC(C)c1cnn2c(N[C@@H]3CCc4[nH]c5ccccc5c4C3)nc(-c3cncc(F)c3)nc12"
  AUC(0-inf) / ng·h/mL: 9140
- COMPOUND: "O=C(c1cnn2c(NCCc3c[nH]c4ccccc34)cc(-c3cncc(F)c3)nc12)N1CCOCC1"
  AUC(0-inf) / ng·h/mL: 373
- COMPOUND: "CC(C)c1cnn2c(N[C@@H]3CCc4[nH]ccc4C3)nc(-c3cncc(F)c3)nc12 [I-137b]"
  AUC(0-inf) / ng·h/mL: 3830
- COMPOUND: "CN(C)c1cnn2c(N[C@@H]3CCc4[nH]c5ccccc5c4C3)nc(-c3cncc(F)c3)nc12"
  AUC(0-inf) / ng·h/mL: 7530
- COMPOUND: "CC(C)c1cnn2c(NCCc3c[nH]c4ccccc34)cc(-c3cncc(F)c3)nc12"
  AUC(0-inf) / ng·h/mL: 743
- COMPOUND: "C[C@@H](O)c1cnn2c(NCCc3c[nH]c4ccccc34)cc(-c3cncc(F)c3)nc12 [I-222a]"
  AUC(0-inf) / ng·h/mL: 2240
- COMPOUND: "C[C@@H](O)c1cnn2c(N[C@@H]3CCc4[nH]c5ccccc5c4C3)cc(-c3cncc(F)c3)nc12 [I-198a]"
  AUC(0-inf) / ng·h/mL: 4050
- COMPOUND: "Fc1cncc(-c2cc(NCCc3c[nH]c4ccccc34)n3nccc3n2)c1"
  AUC(0-inf) / ng·h/mL: 671
- COMPOUND: "Fc1cncc(-c2cc(NCCc3c[nH]c4ccccc34)n3ncc(Br)c3n2)c1"
  AUC(0-inf) / ng·h/mL: 1610
- COMPOUND: "Cc1cnn2c(N[C@H]3CCc4[nH]ccc4C3)nc(-c3cncc(F)c3)nc12 [I-259a]"
  AUC(0-inf) / ng·h/mL: 249
- COMPOUND: "C[C@H](O)c1cnn2c(NCCc3c[nH]c4ccccc34)cc(-c3cncc(F)c3)nc12 [I-222b]"
  AUC(0-inf) / ng·h/mL: 2870
- COMPOUND: "Fc1cncc(-c2cc(OC3CCCC3)nc(NCCc3c[nH]c4ccccc34)n2)c1"
  AUC(0-inf) / ng·h/mL: 2130
- COMPOUND: "Cc1cnn2c(NCCc3c[nH]c4ccccc34)cc(-c3cncc(F)c3)nc12"
  AUC(0-inf) / ng·h/mL: 1990
- COMPOUND: "CN(C)c1cnn2c(N[C@H]3Cc4ccc(O)cc4C3)cc(-c3cncc(F)c3)nc12 [I-204b]"
  AUC(0-inf) / ng·h/mL: 67
- COMPOUND: "C[C@H](O)c1cnn2c(N[C@@H]3CCc4[nH]c5ccccc5c4C3)nc(-c3cncc(F)c3)nc12"
  AUC(0-inf) / ng·h/mL: 121
- COMPOUND: "Cc1cnn2c(N[C@H]3Cc4ccc(O)cc4C3)cc(-c3cncc(F)c3)nc12"
  AUC(0-inf) / ng·h/mL: 215
- COMPOUND: "Fc1cncc(-c2nc(N[C@@H]3CCc4[nH]c5ccccc5c4C3)n3ncc(Br)c3n2)c1"
  AUC(0-inf) / ng·h/mL: 11200
- COMPOUND: "Cc1cnn2c(N[C@@H]3CCc4[nH]c5ccccc5c4C3)nc(-c3cncc(F)c3)nc12"
  AUC(0-inf) / ng·h/mL: 10600

---

Each item that follows carries a reported IC50.
MEASURED_TARGET: AHR (UniProt P35869)
Construct: IC50
Sequence (P35869 1-848): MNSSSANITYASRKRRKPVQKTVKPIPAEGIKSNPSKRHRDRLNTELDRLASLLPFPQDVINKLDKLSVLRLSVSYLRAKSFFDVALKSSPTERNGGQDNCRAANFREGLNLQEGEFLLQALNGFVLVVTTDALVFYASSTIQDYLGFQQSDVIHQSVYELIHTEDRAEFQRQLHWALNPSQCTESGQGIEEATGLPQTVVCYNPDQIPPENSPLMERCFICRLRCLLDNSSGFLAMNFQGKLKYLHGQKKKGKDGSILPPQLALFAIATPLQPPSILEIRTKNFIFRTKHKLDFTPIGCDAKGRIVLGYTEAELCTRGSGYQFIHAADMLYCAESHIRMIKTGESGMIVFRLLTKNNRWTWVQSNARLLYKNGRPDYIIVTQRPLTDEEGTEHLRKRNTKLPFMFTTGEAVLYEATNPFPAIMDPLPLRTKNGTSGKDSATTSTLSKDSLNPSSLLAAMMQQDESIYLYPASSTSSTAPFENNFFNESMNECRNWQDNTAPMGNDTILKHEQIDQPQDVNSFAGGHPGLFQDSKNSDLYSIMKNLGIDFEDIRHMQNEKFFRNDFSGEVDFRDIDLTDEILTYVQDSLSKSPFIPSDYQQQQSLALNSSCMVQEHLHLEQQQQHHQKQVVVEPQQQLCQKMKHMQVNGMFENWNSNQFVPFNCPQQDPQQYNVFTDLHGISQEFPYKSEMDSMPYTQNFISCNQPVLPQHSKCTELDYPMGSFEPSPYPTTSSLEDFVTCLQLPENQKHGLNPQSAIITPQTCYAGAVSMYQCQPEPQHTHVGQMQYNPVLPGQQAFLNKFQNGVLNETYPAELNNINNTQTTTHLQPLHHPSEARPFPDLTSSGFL
TEST: DRE-Luciferase Reporter Assay (Alternate Method) (Example 1B)
Assay type: cell-based, murine or human
TEST_PARAMETERS: cell line and AHR activating ligand not specified
Procedure: AHR binds to Dioxin Responsive Elements (DRE) upstream of genes that it activates. One measure of AHR activity is activation of a reporter gene, such as luciferase, downstream of one or multiple DRE elements. […] Cells were incubated for 4, 15 or 24 hours or another time point and then lysed for determination of luciferase activity as a read-out of the AHR activation or inhibition. […] IC50 values were determined as the concentration which inhibits half of the luciferase activity.
VALUE_TYPE: IC50

- COMPOUND: "Cc1cnn2c(NCCc3ccccc3)cc(-c3cncc(F)c3)nc12 [I-218]"
  EXPERIMENTAL_VALUE: "< 500 nM"
- COMPOUND: "CC(C)n1cnc2c(NCCc3c[nH]c4cccnc34)nc(-c3cncc(F)c3)nc21 [I-7]"
  EXPERIMENTAL_VALUE: "> 1500 nM"
- COMPOUND: "CC(C)n1ccc2c(NCCc3c[nH]c4ccccc34)nc(-c3cncc(F)c3)nc21 [I-4]"
  EXPERIMENTAL_VALUE: "< 500 nM"
- COMPOUND: "CC(C)n1cnc2c(NC3Cc4ccc(O)cc4C3)nc(-c3cncc(F)c3)nc21 (stereo not drawn) [I-48]"
  EXPERIMENTAL_VALUE: "< 500 nM"
- COMPOUND: "C[C@H](O)c1cnn2c(N[C@@H]3CCc4[nH]c5ccccc5c4C3)cc(-c3cncc(F)c3)nc12 [I-198b]"
  EXPERIMENTAL_VALUE: "500 to 1000 nM"
- COMPOUND: "CC(C)c1cnn2c(N[C@@H]3CCc4[nH]c5ccccc5c4C3)nc(N3CCOCC3)nc12 [I-254]"
  EXPERIMENTAL_VALUE: "> 1500 nM"
- COMPOUND: "Cc1cnn2c(N[C@@H]3CCc4[nH]c5ccccc5c4C3)nc(-c3cncc(F)c3)nc12 [I-201]"
  EXPERIMENTAL_VALUE: "< 500 nM"
- COMPOUND: "CC(O)c1cnn2c(NCCc3c[nH]c4ccccc34)cc(-c3cncc(F)c3)nc12 (stereo not drawn) [I-33]"
  EXPERIMENTAL_VALUE: "< 500 nM"
- COMPOUND: "CC(C)c1cnn2c(NCCc3n[nH]c4ccccc34)nc(-c3cncc(F)c3)nc12 [I-289]"
  EXPERIMENTAL_VALUE: "< 500 nM"

Source: patent US11358969B2
